Test system: MALME-3M melanoma
experiment_description: NCI tumour cell line growth inhibition, 48 h
readout_type: TGI (µM)
Answers are plain numbers, in µM.

compound: Cn1cc(C2=C(c3c4n(c5ccccc35)CC(CN)C4)C(=O)NC2=O)c2ccccc21 (stereo not given)
endpoint_value: 8.52

Continue with the compound presented below.
Read off the recorded TGI for CCCn1cc(C2=C(c3cn(C)c4ccccc34)C(=O)NC2=O)c2ccccc21 9.37

###

Answer each item with its documented TGI.
Tested on: ACHN renal
experiment_description: NCI tumour cell line growth inhibition, 48 h
One number for each entry, in µM.

compound: CN(C)c1ccccc1CC(c1c[nH]c2ccccc12)c1c[nH]c2ccccc12
endpoint_value: 20.6

compound: CC(=O)Nc1ccc2c3c(cc(O)c2c1)N(C(=O)CCCC(=O)Nc1ccc2c4c(cc(O)c2c1)N(C(=O)OC(C)(C)C)CC4CCl)CC3CCl (stereo not given)
endpoint_value: 31.2

Recall the reported TGI of Oc1ccc2ccccc2c1-c1c(Nc2ccccc2)ccc2ccccc12 on ACHN renal and write it down. 38.8
